Numbers sourced from patent US8883965B2.

study-system: hV1a receptor (Homo sapiens)
Sequence (P37288 whole entry): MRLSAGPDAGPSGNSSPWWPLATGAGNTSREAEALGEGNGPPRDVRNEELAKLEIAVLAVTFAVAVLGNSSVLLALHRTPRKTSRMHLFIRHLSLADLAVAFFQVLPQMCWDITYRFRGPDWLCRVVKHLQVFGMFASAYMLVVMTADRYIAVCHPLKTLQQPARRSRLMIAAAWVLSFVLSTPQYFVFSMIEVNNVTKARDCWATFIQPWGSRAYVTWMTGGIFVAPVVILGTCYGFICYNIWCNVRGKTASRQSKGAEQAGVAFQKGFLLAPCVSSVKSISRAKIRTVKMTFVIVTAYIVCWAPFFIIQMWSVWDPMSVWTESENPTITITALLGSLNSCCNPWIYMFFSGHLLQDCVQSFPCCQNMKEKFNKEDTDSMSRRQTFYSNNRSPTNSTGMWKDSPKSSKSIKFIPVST
experiment-summary: In vitro receptor assay: transcriptional reporter (luciferase) assay of agonist activity in HEK-293 cells transiently transfected with hV1a receptor
condition-info: hV1a receptor in HEK-293 cells, 5 hours exposure, geometric mean of at least three independent experiments, nanomol/L, read-out: EC50 (median effective concentration)
Positions of bridges follow the written chain, without caps; N, C: chain ends. Non-standard residues stand in square brackets, D forms with d. Residues, ends and D or L forms follow the SMILES beside them. Ala(cPent) = N[C@@H](CC1CCCC1)C(=O)O; Dab = NCC[C@H](N)C(=O)O; Ac4c = NC1(C(=O)O)CCC1

{"molecule": "NCCCC[C@H](NC(=O)[C@@H]1CCCN1C(=O)[C@@H]1CSSC[C@H](NC(=O)CNC(=O)CNC(=O)CN)C(=O)N[C@@H](Cc2ccc(O)cc2)C(=O)N[C@@H](Cc2ccccc2)C(=O)N[C@@H](CCC(N)=O)C(=O)N[C@@H](CC(N)=O)C(=O)N1)C(=O)NCC(N)=O [terlipressin, reference compound] (H-GGGCYFQNCPKG-NH2; disulfide 4-9)", "unit-name": "nM", "EC50": 82.1}
{"molecule": "CC[C@H](C)[C@@H]1NC(=O)[C@H](CC2CCCC2)NC(=O)[C@@H](N)CSSC[C@@H](C(=O)N2CCC[C@H]2C(=O)N[C@@H](CCN)C(=O)NCC(N)=O)NC(=O)[C@H](CC(N)=O)NC(=O)[C@H](CC(N)=O)NC1=O [compound 10] (H-C[Ala(cPent)]INNCP[Dab]G-NH2; disulfide 1-6)", "unit-name": "nM", "EC50": 17.8}
{"molecule": "CC[C@H](C)[C@@H]1NC(=O)C2(CCC2)NC(=O)[C@@H](N)CSSC[C@@H](C(=O)N2CCC[C@H]2C(=O)N[C@@H](CCN)C(=O)NCC(N)=O)NC(=O)[C@H](CC(N)=O)NC(=O)[C@H](CCC(N)=O)NC1=O [compound 3, [AcBuc^2, Dbu^8]VT] (H-C[Ac4c]IQNCP[Dab]G-NH2; disulfide 1-6)", "unit-name": "nM", "EC50": 0.94}

###

study-system: hV1a receptor (Homo sapiens)
experiment-summary: In vitro receptor assay: transcriptional reporter (luciferase) assay of agonist activity in HEK-293 cells transiently transfected with hV1a receptor
condition-info: hV1a receptor in HEK-293 cells, 5 hours exposure, geometric mean of at least three independent experiments, nanomol/L, read-out: EC50 (median effective concentration)
Positions of bridges follow the written chain, without caps; N, C: chain ends. Non-standard residues stand in square brackets, D forms with d. Residues, ends and D or L forms follow the SMILES beside them. Ala(cPent) = N[C@@H](CC1CCCC1)C(=O)O; Orn(iPr) = CC(C)NCCC[C@H](N)C(=O)O; Cha = N[C@@H](CC1CCCCC1)C(=O)O; Orn = NCCC[C@H](N)C(=O)O; Dab = NCC[C@H](N)C(=O)O
Reported EC50 values follow for various compounds

{"compound": "CC[C@H](C)[C@@H]1NC(=O)[C@H](CC2CCCCC2)NC(=O)[C@@H](N)CSSC[C@@H](C(=O)N2CCC[C@H]2C(=O)N[C@@H](CCN)C(=O)NCC(N)=O)NC(=O)[C@H](CC(N)=O)NC(=O)[C@H](CCC(N)=O)NC1=O [compound 1] (H-C[Cha]IQNCP[Dab]G-NH2; disulfide 1-6; N-terminus and C-terminus assumed)", "study-system": "hV1a receptor (Homo sapiens)", "EC50, nM": 0.27}
{"compound": "CC[C@H](C)[C@@H]1NC(=O)[C@H](CC2CCCC2)NC(=O)[C@@H](N)CSSC[C@@H](C(=O)N2CCC[C@H]2C(=O)N[C@@H](CCN)C(=O)NCC(N)=O)NC(=O)[C@H](CC(N)=O)NC(=O)[C@H](CCC(N)=O)NC1=O [compound 2] (H-C[Ala(cPent)]IQNCP[Dab]G-NH2; disulfide 1-6)", "study-system": "hV1a receptor (Homo sapiens)", "EC50, nM": 0.8}
{"compound": "CC[C@H](C)[C@@H]1NC(=O)[C@H](CC2CCCCC2)NC(=O)[C@@H](N)CSSC[C@@H](C(=O)N2CCC[C@H]2C(=O)N[C@@H](CCCN)C(=O)NCC(N)=O)NC(=O)[C@H](CC(N)=O)NC(=O)[C@H](CC(N)=O)NC1=O [compound 11] (H-C[Cha]INNCP[Orn]G-NH2; disulfide 1-6)", "study-system": "hV1a receptor (Homo sapiens)", "EC50, nM": 9.93}
{"compound": "CC[C@H](C)[C@@H]1NC(=O)[C@H](CC2CCCCC2)NC(=O)[C@@H](N)CSSC[C@@H](C(=O)N2CCC[C@H]2C(=O)N[C@@H](CCCNC(C)C)C(=O)NCC(N)=O)NC(=O)[C@H](CC(N)=O)NC(=O)[C@H](CC(N)=O)NC1=O [compound 4, [Cha^2, Asn^4, Orn(i-Pr)^6]VT] (H-C[Cha]INNCP[Orn(iPr)]G-NH2; disulfide 1-6)", "study-system": "hV1a receptor (Homo sapiens)", "EC50, nM": 0.75}
